- Tested system: Human Peroxisome Proliferator-Activated Receptor (PPAR)α (Homo sapiens)
- Sequence (Q07869 239-466 limits assumed): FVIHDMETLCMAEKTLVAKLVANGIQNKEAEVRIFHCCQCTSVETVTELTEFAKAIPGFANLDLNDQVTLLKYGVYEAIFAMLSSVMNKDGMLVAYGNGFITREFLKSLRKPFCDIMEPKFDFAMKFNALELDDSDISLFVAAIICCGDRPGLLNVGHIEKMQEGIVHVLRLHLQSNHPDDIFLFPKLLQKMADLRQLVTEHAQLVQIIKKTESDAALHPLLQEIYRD
- Measurement notes: Transcription activation test for human PPARα (GAL4-hPPARαLBD luciferase reporter in CV-1 cells)
- Condition info: firefly luciferase reporter, 24 hr with test compound in serum free medium, read-out: transactivation action (EC50, nmol/l)
- Source text: Transcription Activation Test for Human Peroxisome Proliferator-Activated Receptor (PPAR)α […]
Param label: returns y when EC50 < 10 nmol/L, returns n otherwise, including exact equality.

Exam item: Dear colleague, could you confirm whether EC50 of `CC(C)(Sc1nc(CCNc2ncc(-c3ccc(OC(F)(F)F)cc3)cn2)cs1)C(=O)O` falls below 10 nmol/L? Thanks.
Marked response: n

Exam item: Dear colleague, could you confirm whether EC50 of `CCCCCCCN(CCc1csc(SC(C)(C)C(=O)O)n1)c1ncc(CC)cn1` falls below 10 nmol/L? Thanks.
Marked response: y

Exam item: Dear colleague, could you confirm whether EC50 of `CC(C)(Sc1nc(CCOc2ccc(-c3ccc(F)cc3)cc2)cs1)C(=O)O` falls below 10 nmol/L? Thanks.
Marked response: n

Exam item: Dear colleague, could you confirm whether EC50 of `CC(C)(Sc1nc(CCNc2ccc(-c3ccc(C(F)(F)F)cc3F)nn2)cs1)C(=O)O` falls below 10 nmol/L? Thanks.
Marked response: n

Exam item: Dear colleague, could you confirm whether EC50 of `CC(C)(Sc1nc(CCNc2cnc(-c3ccc(Cl)cc3)cn2)cs1)C(=O)O` falls below 10 nmol/L? Thanks.
Marked response: n

Exam item: Dear colleague, could you confirm whether EC50 of `CC(C)(Sc1nc(CCOc2ccc(-c3ccc(F)cc3)cn2)cs1)C(=O)O` falls below 10 nmol/L? Thanks.
Marked response: n

Exam item: Dear colleague, could you confirm whether EC50 of `CCc1cnc(N(C/C=C/c2ccccc2)CCc2csc(SC(C)(C)C(=O)O)n2)nc1` falls below 10 nmol/L? Thanks.
Marked response: n

Exam item: Dear colleague, could you confirm whether EC50 of `CCCCCCCN(CCc1csc(SC(C)(C)C(=O)O)n1)c1ncc(N2CCOCC2)cn1` falls below 10 nmol/L? Thanks.
Marked response: y

Exam item: Dear colleague, could you confirm whether EC50 of `CCc1cnc(N(CCc2csc(SC(C)(C)C(=O)O)n2)Cc2cnn(-c3ccccc3)c2)nc1` falls below 10 nmol/L? Thanks.
Marked response: n
